B1: WSB1 (parent)
chain: DLKDDGNMMKVLRGHQNWVYSCAF

Variants of: B1
METHOD_SUMMARY: protein stability index of a GFP-peptide fusion (GPS, HEK-293T) (PSI 1-6); higher = more stable;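 further: lentivirally expressed fusions sorted by FACS into six bins by GFP to DsRed ratio, PSI derived from sequencing read proportions per bin multiplied by bin number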
ASSAY_CONTEXT: c terminus: a fixed tail appended
PROPERTY_LABEL: protein stability index

• DLKDDGNMMKVLRGHQNWVYSCTF [A23T] = 1.6
• DLKDDGNMMKVLRGHQNWVRSCAF [Y20R] = 2.05
• DLKDDGNMMKVGRGHQNWVYSCAF [L12G] = 1.91
• DLKDDGNMMKVLRGHQNWVYSCKF [A23K] = 1.31
• DLKDDGNMMKVLRGHQNFVYSCAF [W18F] = 1.47
• DLKDDGNMMKVLRGHQNWVYSCAT [F24T] = 1.98
• DRKDDGNMMKVLRGHQNWVYSCAF [L2R] = 2.05
• DLKDDGNMMKVLRGHQNWVYSCAK [F24K] = 2.34
• DLKDDGNMMKVLRGHTNWVYSCAF [Q16T] = 2.79
• DLKDDGNCMKVLRGHQNWVYSCAF [M8C] = 1.38
• DLKDDGNQMKVLRGHQNWVYSCAF [M8Q] = 2.26
• DLKDDGNMMKVLRGHQNWVMSCAF [Y20M] = 1.61
• DLKDDGNMMKVLRGHQGWVYSCAF [N17G] = 1.78
• DLKDDGNMMKSLRGHQNWVYSCAF [V11S] = 2.79
• DLKDDGNMMKVLRGHHNWVYSCAF [Q16H] = 2.75
• DLKDDGNMEKVLRGHQNWVYSCAF [M9E] = 2.03
• DLKDDGNLMKVLRGHQNWVYSCAF [M8L] = 1.15
• DLKDDGNMMKVKRGHQNWVYSCAF [L12K] = 1.85
• DLKDDGNMMKVLRGHQNWVTSCAF [Y20T] = 2.63
• DLKDDGNMHKVLRGHQNWVYSCAF [M9H] = 2.19
• DLKDDGNMMKVLRGHQNWVYSNAF [C22N] = 1.81
• DLKDDGNMMKVLRLHQNWVYSCAF [G14L] = 2.05
• DLKDDGNMMKVLRGHQNHVYSCAF [W18H] = 2.34
• DLKDDGNMMKVLRGHMNWVYSCAF [Q16M] = 2.04
• DLKDDINMMKVLRGHQNWVYSCAF [G6I] = 2.23
• DLADDGNMMKVLRGHQNWVYSCAF [K3A] = 2.75
• DLKDDGNMMKVLRGHQNWCYSCAF [V19C] = 2.73
• DLKDEGNMMKVLRGHQNWVYSCAF [D5E] = 1.96
• DLKDDGNMMKVLRGHQNWVYHCAF [S21H] = 2.05
• DLKDDGNMMKVTRGHQNWVYSCAF [L12T] = 1.37
• DLKDDGNTMKVLRGHQNWVYSCAF [M8T] = 1.54
• DLKDDGNMMKVLRTHQNWVYSCAF [G14T] = 2.39
